System: MCF7
PROTOCOL_DETAILS: Growth inhibition of MCF7 cells by sulforhodamine assay
Type: functional, cell-based
CONDITION_SET: Homo sapiens
OBSERVATION_TYPE: IC50 (µM)

> print(dat)
                            compound  system.under.test  observation.type  measurement
1     COc1ccc(/C=C/C(=O)c2ccccc2)cc1               MCF7              IC50           90
2         O=C(/C=C/c1ccccc1)c1ccccc1               MCF7              IC50           63
3  COc1ccc(/C=C/C(=O)c2ccccc2O)cc1OC               MCF7              IC50           95

a. O=C(/C=C/c1ccccc1)c1ccccc1O [2'-HYDROXYCHALCONE]
b. O=C(/C=C/c1ccccn1)c1ccccc1O
Q) Hi there, can you help? I need to know whether a or b has lower measured IC50. Reply briefly: the label of your chosen item.
A) b
(b: 6.7 µM, a: 78 µM)

----------
PROTOCOL_DETAILS: Growth inhibition of HK2 cells by sulforhodamine assay
Type: cell-based
CONDITION_SET: Homo sapiens, HK-2
OBSERVATION_TYPE: IC50 (µM)
Lab book: enter the figure in µM, no units written.

Q) If you can, please state the reported IC50 value of O=C(/C=C/c1ccccn1)c1ccccc1O .
A) 7.9

Q) If you can, please state the reported IC50 value of O=C(/C=C/c1ccccc1)c1ccccc1 .
A) 30.5

----------
viability at 100 µM overview
Tested on: MCF7
PROTOCOL_DETAILS: Cytotoxicity against human MCF7 cells […] in aerobic condition assessed as survival at 100 uM by sulforhodamine assay
Assay type: functional
CONDITION_SET: read-out: Activity
Lab book: enter the figure in %, no units written.

Q) If you can, please state the reported viability at 100 µM value of Nc1ccc(/C=C/C(=O)c2ccccc2O)cc1 .
A) 43

Q) If you can, please state the reported viability at 100 µM value of COc1cc(/C=C/C(=O)c2ccccc2O)ccc1OCc1ccccc1 .
A) 97

Q) If you can, please state the reported viability at 100 µM value of CN(C)c1ccc(/C=C/C(=O)c2ccccc2O)cc1 .
A) 87

Q) If you can, please state the reported viability at 100 µM value of COc1ccc(/C=C/C(=O)c2c(O)cc(OC)cc2OC)cc1 .
A) 60

----------
Tested on: MCF7
PROTOCOL_DETAILS: Cytotoxicity against human MCF7 cells […] in aerobic condition assessed as survival at 100 uM by sulforhodamine assay
Assay type: functional
CONDITION_SET: read-out: Activity
OBSERVATION_TYPE: viability at 100 µM (%)
Lab book: enter the figure in %, no units written.

> print(dat)
                                   compound  unit.annotation  measurement
1  O=C1CC(c2ccc(Br)cc2)Oc2ccccc21 (stereo not drawn)                %           26

// next item, viability at 100 µM requested
Q) State its viability at 100 µM on MCF7: COc1ccc(C2CC(=O)c3ccccc3O2)cc1OC (stereo not drawn)
A) 81

----------
PROTOCOL_DETAILS: Growth inhibition of HK2 cells by sulforhodamine assay
Type: cell-based
CONDITION_SET: Homo sapiens, HK-2
IC50 overview
Lab book: enter the figure in µM, no units written.

# count of solved cases: 5
> print(dat)
                             compound  observation.type  measurement
1     COc1ccc(/C=C/C(=O)c2ccccc2O)cc1              IC50         23.7
2      COc1ccc(/C=C/C(=O)c2ccccc2)cc1              IC50         23.2
3  O=C(/C=C/c1ccc2c(c1)OCO2)c1ccccc1O              IC50         11.6
4     O=C(/C=C/c1ccc(Br)cc1)c1ccccc1O              IC50         33.8
5     O=c1cc(-c2ccc(Br)cc2)oc2ccccc12              IC50           48

// next item, IC50 requested
Q) If you can, please state the reported IC50 value of O=C(/C=C/c1ccccc1)c1ccccc1O [2'-HYDROXYCHALCONE] .
A) 24.4

----------
Test system: MCF7
PROTOCOL_DETAILS: Cytotoxicity against human MCF7 cells […] in aerobic condition assessed as survival at 100 uM by sulforhodamine assay
Assay type: functional
CONDITION_SET: read-out: Activity
OBSERVATION_TYPE: viability at 100 µM (%)
Lab book: enter the figure in %, no units written.

# count of solved cases: 8
> print(dat)
                                   compound  measurement
1              O=C(/C=C/c1ccccc1Br)c1ccccc1           32
2  COc1ccc(C2CC(=O)c3ccccc3O2)cc1 (stereo unspecified)            2
3  O=C(/C=C/c1ccc([N+](=O)[O-])cc1)c1ccccc1O           43
4   O=C(/C=C/c1ccccc1[N+](=O)[O-])c1ccccc1O          100
5        O=C(/C=C/c1ccc2c(c1)OCO2)c1ccccc1O           79
6  O=C(/C=C/c1ccccc1Br)c1ccc(OCc2ccccc2)cc1O           74
7   O=C(/C=C/c1ccccc1)c1ccc(OCc2ccccc2)cc1O           74
8           O=c1cc(-c2ccc(Cl)cc2)oc2ccccc12          100

Q) If you can, please state the reported viability at 100 µM value of O=C(/C=C/c1ccccc1)c1ccccc1O [2'-HYDROXYCHALCONE] .
A) 3

Q) If you can, please state the reported viability at 100 µM value of CSc1ccc(/C=C/C(=O)c2ccccc2)cc1 .
A) 47

Q) If you can, please state the reported viability at 100 µM value of CCCCOc1ccc(/C=C/C(=O)c2ccc(OCCCC)cc2O)cc1 .
A) 81

Q) If you can, please state the reported viability at 100 µM value of O=C1CC(c2ccccc2)Oc2ccccc21 (stereo unspecified) .
A) 54

----------
viability at 100 µM overview
System: MCF7
PROTOCOL_DETAILS: Cytotoxicity against human MCF7 cells […] in aerobic condition assessed as survival at 100 uM by sulforhodamine assay
Assay type: functional
CONDITION_SET: read-out: Activity
Lab book: enter the figure in %, no units written.

# count of solved cases: 4
> print(dat)
                                   molecule  unit.annotation  measurement
1      CCCCCCOc1ccc(/C=C/C(=O)c2ccccc2O)cc1                %           76
2       COc1ccc(OC)c(/C=C/C(=O)c2ccccc2O)c1                %           45
3  COc1cc(O)c(C(=O)/C=C/c2ccc(OC)c(OC)c2)c(OC)c1                %           89
4           O=C(/C=C/C=C/c1ccccc1)c1ccccc1O                %           84

Q) State its viability at 100 µM on MCF7: O=C1CC(c2ccccc2Br)Oc2ccccc21 (stereo unspecified)
A) 12

Q) State its viability at 100 µM on MCF7: O=C(/C=C/c1ccco1)c1ccccc1O
A) 60

Q) State its viability at 100 µM on MCF7: COc1ccc(/C=C/C(=O)c2ccccc2O)cc1
A) 10

Q) State its viability at 100 µM on MCF7: COc1ccc(/C=C/C(=O)c2ccccc2)cc1
A) 30

Q) State its viability at 100 µM on MCF7: O=c1cc(-c2ccccc2Br)oc2ccccc12
A) 36

Q) State its viability at 100 µM on MCF7: O=C(/C=C/c1ccc(Br)cc1)c1ccccc1
A) 44

Q) State its viability at 100 µM on MCF7: O=C1CC(c2ccc3c(c2)OCO3)Oc2ccccc21 (stereo unspecified)
A) 100

Q) State its viability at 100 µM on MCF7: O=C(/C=C/c1ccc(Cl)cc1)c1ccccc1
A) 56

Q) State its viability at 100 µM on MCF7: COc1ccc(-c2cc(=O)c3ccccc3o2)cc1
A) 100

Q) State its viability at 100 µM on MCF7: CC(=O)Nc1ccc(/C=C/C(=O)c2ccccc2O)cc1
A) 79

Q) State its viability at 100 µM on MCF7: O=C1CC(c2ccc(OCc3ccccc3)cc2)Oc2ccccc21 (stereo unspecified)
A) 76

Q) State its viability at 100 µM on MCF7: O=c1cc(-c2ccccc2)oc2ccccc12
A) 57

Q) State its viability at 100 µM on MCF7: O=C(/C=C/c1ccc(Br)cc1)c1ccccc1O
A) 43

Q) State its viability at 100 µM on MCF7: CSc1ccc(/C=C/C(=O)c2ccccc2O)cc1
A) 75

Q) State its viability at 100 µM on MCF7: CSc1ccc(C(O)CC(=O)c2ccccc2O)cc1 (stereo unspecified)
A) 90

Q) State its viability at 100 µM on MCF7: O=C(/C=C/c1ccc(Cl)cc1)c1ccccc1O
A) 41

Q) State its viability at 100 µM on MCF7: COc1ccc(/C=C/C(=O)c2ccccc2O)cc1I
A) 96

Q) State its viability at 100 µM on MCF7: O=C(/C=C/c1ccc(O)cc1)c1ccccc1O
A) 3

Q) State its viability at 100 µM on MCF7: O=C(/C=C/c1ccccc1Br)c1ccccc1O
A) 100

Q) State its viability at 100 µM on MCF7: O=C(/C=C/c1ccc(OCc2ccccc2)cc1)c1ccc(OCc2ccccc2)cc1O
A) 100

Q) State its viability at 100 µM on MCF7: COc1cc(O)c(C(=O)/C=C/c2ccccc2Br)c(OC)c1
A) 82

Q) State its viability at 100 µM on MCF7: COc1ccc(/C=C/C(=O)c2ccccc2O)cc1OC
A) 1

This collection of values is drawn from ChEMBL document CHEMBL1147926.
